- protocol notes: Cytotoxicity test with MTT method in Vero cells
- Type: cell-based, African green monkey
- conditions used: African green monkey, 5 days, read-out: CC50 (50% cytotoxic concentration)
measured endpoint: CC50 at 5 days (µM)
Lab book: enter the figure in µM, no units written.

Observe how each entry below is paired with its result.
{"compound": "CC(=O)OC[C@H]1O[C@H](OCCc2cn(C3=CC(=O)c4ccccc4C3=O)nn2)C=C[C@@H]1OC(C)=O [Compound 6a]", "uom": "µM", "CC50 at 5 days": 68}
{"compound": "O=C1C=C(NCc2cn(CN3C(=O)c4ccccc4C3=O)nn2)C(=O)c2ccccc21 [Compound 3a]", "uom": "µM", "CC50 at 5 days": 470}
{"compound": "CC(=O)OC[C@H]1O[C@H](OCc2cn(C3=CC(=O)c4ccccc4C3=O)nn2)C=C[C@@H]1OC(C)=O [Compound 6b]", "uom": "µM", "CC50 at 5 days": 48.7}
{"compound": "CC(=O)OC[C@H]1O[C@H](OC(C)(C)c2cn(C3=CC(=O)c4ccccc4C3=O)nn2)C=C[C@@H]1OC(C)=O [Compound 6c]", "uom": "µM", "CC50 at 5 days": 58.1}
{"compound": "CC(C)(O)c1cn(CN2C(=O)c3ccccc3C2=O)nn1 [Compound 1]", "uom": "µM", "CC50 at 5 days": 680}
{"compound": "O=C1C=C(NCCn2cc(CCCO)nn2)C(=O)c2ccccc21 [Compound 5a]", "uom": "µM", "CC50 at 5 days": 294}

The compound listed as O=C1C(Br)=C(NCc2cn(CN3C(=O)c4ccccc4C3=O)nn2)C(=O)c2ccccc21 [Compound 4b] has a reported CC50 at 5 days of 330

The compound listed as O=C1C=C(n2cc(CCO)nn2)C(=O)c2ccccc21 [Compound 2a] has a reported CC50 at 5 days of 38

The compound listed as CC(C)(O)c1cn(CCNC2=CC(=O)c3ccccc3C2=O)nn1 [Compound 5b] has a reported CC50 at 5 days of 298

The compound listed as O=C1C(Br)=C(NCc2cn(CCCN3C(=O)c4ccccc4C3=O)nn2)C(=O)c2ccccc21 [Compound 4a] has a reported CC50 at 5 days of 68.8

The compound listed as O=C1C=C(n2cc(CCCO)nn2)C(=O)c2ccccc21 [Compound 2b] has a reported CC50 at 5 days of 38.8

The compound listed as CC(=O)OC[C@H]1O[C@H](OCCCc2cn(C3=CC(=O)c4ccccc4C3=O)nn2)C=C[C@@H]1OC(C)=O [Compound 6d] has a reported CC50 at 5 days of 69.5

The compound listed as CC(=O)OCC1OC(n2cc(CNC3=C(Br)C(=O)c4ccccc4C3=O)nn2)C(OC(C)=O)C(OC(C)=O)C1OC(C)=O (centres unmarked) [Compound 7] has a reported CC50 at 5 days of 334

The compound listed as O=C1C=C(NCc2cn(CCN3C(=O)c4ccccc4C3=O)nn2)C(=O)c2ccccc21 [Compound 3b] has a reported CC50 at 5 days of 1190

* * *

- System: Vero cells
- protocol notes: Cytotoxicity test with MTT method in Vero cells
- Format: cell-based, African green monkey
- conditions used: 5 days
Measured CC20 (20% cytotoxic concentration), listed per entry.
Lab book: enter the figure in µM, no units written.

Observe how each entry below is paired with its result.
{"molecule": "O=C1C=C(NCCn2cc(CCCO)nn2)C(=O)c2ccccc21", "CC20 (20% cytotoxic concentration), µM": 74.85}
{"molecule": "O=C1C(Br)=C(NCc2cn(CN3C(=O)c4ccccc4C3=O)nn2)C(=O)c2ccccc21", "CC20 (20% cytotoxic concentration), µM": 136.90}
{"molecule": "CC(=O)OC[C@H]1O[C@H](OCCCc2cn(C3=CC(=O)c4ccccc4C3=O)nn2)C=C[C@@H]1OC(C)=O", "CC20 (20% cytotoxic concentration), µM": 38.61}

The molecule listed as `O=C1C=C(NCc2cn(CN3C(=O)c4ccccc4C3=O)nn2)C(=O)c2ccccc21` has a reported CC20 (20% cytotoxic concentration) of 55.28

The molecule listed as `O=C1C(Br)=C(NCc2cn(CCCN3C(=O)c4ccccc4C3=O)nn2)C(=O)c2ccccc21` has a reported CC20 (20% cytotoxic concentration) of 40.69

The molecule listed as CC(=O)OCC1OC(n2cc(CNC3=C(Br)C(=O)c4ccccc4C3=O)nn2)C(OC(C)=O)C(OC(C)=O)C1OC(C)=O (stereo not shown) has a reported CC20 (20% cytotoxic concentration) of 119.10

The molecule listed as `CC(C)(O)c1cn(CCNC2=CC(=O)c3ccccc3C2=O)nn1` has a reported CC20 (20% cytotoxic concentration) of 66.93

The molecule listed as `CC(C)(O)c1cn(CN2C(=O)c3ccccc3C2=O)nn1` has a reported CC20 (20% cytotoxic concentration) of 177.10

* * *

Measured CC20 (20% cytotoxic concentration), listed per entry.
- Tested on: Vero cells
- protocol notes: Cytotoxicity test with MTT method in Vero cells
- Type: cell-based, African green monkey
- conditions used: 5 days
Lab book: enter the figure in µM, no units written.

{"cpd smiles": "O=C1C=C(n2cc(CCCO)nn2)C(=O)c2ccccc21", "uom": "µM", "CC20 (20% cytotoxic concentration)": 9.89}
{"cpd smiles": "O=C1C=C(n2cc(CCO)nn2)C(=O)c2ccccc21", "uom": "µM", "CC20 (20% cytotoxic concentration)": 8.87}
{"cpd smiles": "CC(=O)OC[C@H]1O[C@H](OCc2cn(C3=CC(=O)c4ccccc4C3=O)nn2)C=C[C@@H]1OC(C)=O", "uom": "µM", "CC20 (20% cytotoxic concentration)": 21.18}
{"cpd smiles": "CC(=O)OC[C@H]1O[C@H](OC(C)(C)c2cn(C3=CC(=O)c4ccccc4C3=O)nn2)C=C[C@@H]1OC(C)=O", "uom": "µM", "CC20 (20% cytotoxic concentration)": 25.73}

In the following, a different compound is considered.
The compound listed as `CC(=O)OC[C@H]1O[C@H](OCCc2cn(C3=CC(=O)c4ccccc4C3=O)nn2)C=C[C@@H]1OC(C)=O` has a reported CC20 (20% cytotoxic concentration) of 39.92

Every entry's value here was drawn from paper PMC8510480.
